experimental.target: Glucose-dependent insulinotropic receptor (Homo sapiens)
Sequence (whole entry): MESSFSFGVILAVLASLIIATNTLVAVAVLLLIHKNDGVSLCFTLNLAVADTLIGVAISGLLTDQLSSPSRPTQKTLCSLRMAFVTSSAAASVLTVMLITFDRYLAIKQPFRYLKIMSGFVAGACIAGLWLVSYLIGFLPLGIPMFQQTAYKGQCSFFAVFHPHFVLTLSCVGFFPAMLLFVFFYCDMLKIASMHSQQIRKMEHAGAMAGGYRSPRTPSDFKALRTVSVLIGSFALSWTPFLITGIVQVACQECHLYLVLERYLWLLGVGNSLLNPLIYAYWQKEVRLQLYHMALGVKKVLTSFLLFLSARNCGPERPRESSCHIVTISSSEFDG
assay.remarks: Activation of human GPR119 expressed in CHOK1 cells harboring CRE-luciferase at 1 uM after 6 hrs by luciferase reporter gene assay relative to GSK1292263
Assay type: functional, cell-based
readout.kind: Activity (%)

> print(dat)
                               smiles.input  readout.kind  quantity.unit  test.value
1  CON(C)C(=O)c1ccc(-c2csc3c(N(C)C4CCN(C(=O)OC(C)(C)C)CC4)ncnc23)cc1F      Activity              %          87
2  CON(C)C(=O)c1ccc(-c2ccc(OCC3CCN(C(=O)OC(C)C)CC3)cn2)cc1      Activity              %          80
3  CON(C)C(=O)c1ccc(-c2ccc(OCC3CCN(C(=O)OC(C)(C)C)CC3)cn2)cc1      Activity              %         106
4  CC(C)(C)OC(=O)N1CCC(COc2ccc(-c3ccc(C(=O)N4CCCCO4)cc3)nc2)CC1      Activity              %          73
5  CON(C)C(=O)c1ccc(-c2csc3c(OC4CCN(C(=O)OC(C)(C)C)CC4)ncnc23)cc1F      Activity              %          88
6  CON(C)C(=O)c1ccc(-c2csc3c(OC4CCN(C(=O)OC(C)(C)C)CC4)ncnc23)cc1      Activity              %         100

###

experimental.target: Glucose-dependent insulinotropic receptor (Homo sapiens, UniProt Q8TDV5)
assay.remarks: Agonist activity at human GPR119 expressed in CHOK1 cells harboring CRE-luciferase after 6 hrs by luciferase reporter gene assay
readout.kind: EC50 (nM)

Worked set:
> print(dat)
                               smiles.input  readout.kind  test.value
1  CCc1cnc(N2CCC(Oc3ncnc4c(-c5ccc(C(=O)N(C)OC)c(F)c5)csc34)CC2)nc1          EC50         105
2  CN(c1ncnc2c(-c3ccc(C(=O)NOCc4ccccc4)cc3)csc12)C1CCN(C(=O)OC(C)(C)C)CC1          EC50          83
3  CON(C)C(=O)c1ccc(-c2ccc(OCC3CCN(C(=O)OC(C)C)CC3)cn2)cc1          EC50         155
4  CON(C)C(=O)c1ccc(-c2csc3c(N(C)C4CCN(C(=O)OC(C)(C)C)CC4)ncnc23)cc1F          EC50          53
5  CC(C)(C)OC(=O)N1CCC(COc2ccc(-c3ccc(C(=O)N4CCCCO4)cc3)nc2)CC1          EC50         321
6  CCc1cnc(N2CCC(COc3ccc(-c4ccc(C(=O)N(C)OC)c(F)c4)nc3)CC2)nc1          EC50          77
7  CCc1cnc(N2CCC(Oc3ncnc4c(-c5ccc(C(=O)N(C)OC)cc5)csc34)CC2)nc1          EC50         199
8  CON(C)C(=O)c1ccc(-c2ccc(OCC3CCN(C(=O)OC(C)(C)C)CC3)cn2)cc1          EC50         171

[A] CCc1cnc(N2CCC(COc3ccc(-c4ccc(C(=O)N(C)OC)cc4)nc3)CC2)nc1
[B] CON(C)C(=O)c1ccc(-c2csc3c(N(C)C4CCN(C(=O)OC(C)C)CC4)ncnc23)cc1F
[C] CON(C)C(=O)c1ccc(-c2csc3c(N(C)C4CCN(C(=O)OC(C)C)CC4)ncnc23)cc1
[D] CON(C)C(=O)c1ccc(-c2csc3c(N(C)C4CCN(C(=O)OC(C)(C)C)CC4)ncnc23)cc1
Q: Please produce an ascending ranking of these molecules based on EC50. Form entry: labels listed in requested order.
A: B, D, C, A

# credit: ChEMBL document CHEMBL4052726
